Record form. Attribute: melting point. Fill in for each entry.

stdin: Recall and state the measured melting point for `COc1cc(/C=C/C(=O)Nc2ccc(Br)cc2)ccc1F` .
stdout: 163 to 165 °C

stdin: Recall and state the measured melting point for O=C(O)COc1cc2c(c(Cl)c1Cl)C(=O)C(C1CCCC1)C2 (centres undefined) .
stdout: 184 to 186 °C

stdin: Recall and state the measured melting point for COc1cc(OCC2CCCO2)ccc1/C=C/C(=O)CC(=O)/C=C/c1ccc2cc[nH]c2c1 (centres undefined) .
stdout: 159 to 161 °C

stdin: Recall and state the measured melting point for `CNc1nc(-c2ccccc2)c(-c2nc3ccccc3c(=O)n2-c2ccc(OC)cc2)s1` .
stdout: 235 to 236 °C

stdin: Recall and state the measured melting point for `CS(=O)(=O)c1ccc(-c2sc(-c3ccc(F)c(Cl)c3)nc2-c2ccc(F)cc2)cc1` .
stdout: 165 to 167 °C

stdin: Recall and state the measured melting point for `C[C@@H](NC(=O)OC(C)(C)C)c1nc2c(Cl)cccc2s1` .
stdout: 95 to 96 °C

stdin: Recall and state the measured melting point for `COc1cccc(N(C)C)c1C(=O)NC(=O)Nc1cccc(C(F)(F)F)c1` .
stdout: 180 °C

stdin: Recall and state the measured melting point for `O=C(c1cnoc1C1CC1)c1ncc(Cl)cc1Cl` .
stdout: 74 to 75 °C

stdin: Recall and state the measured melting point for CCC1(O)OC(=O)c2ccc(Oc3ccc(C(F)(F)F)cc3Cl)cc21 (centres undefined) .
stdout: 120 to 122 °C
